molecular target: Serine/threonine-protein kinase D2 (Homo sapiens) (UniProt Q9BZL6); settings: at 1 µM;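 note: mean value of PRKD2 inhibition, from the GSK PKIS screening panel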
Sequence (Q9BZL6 whole entry): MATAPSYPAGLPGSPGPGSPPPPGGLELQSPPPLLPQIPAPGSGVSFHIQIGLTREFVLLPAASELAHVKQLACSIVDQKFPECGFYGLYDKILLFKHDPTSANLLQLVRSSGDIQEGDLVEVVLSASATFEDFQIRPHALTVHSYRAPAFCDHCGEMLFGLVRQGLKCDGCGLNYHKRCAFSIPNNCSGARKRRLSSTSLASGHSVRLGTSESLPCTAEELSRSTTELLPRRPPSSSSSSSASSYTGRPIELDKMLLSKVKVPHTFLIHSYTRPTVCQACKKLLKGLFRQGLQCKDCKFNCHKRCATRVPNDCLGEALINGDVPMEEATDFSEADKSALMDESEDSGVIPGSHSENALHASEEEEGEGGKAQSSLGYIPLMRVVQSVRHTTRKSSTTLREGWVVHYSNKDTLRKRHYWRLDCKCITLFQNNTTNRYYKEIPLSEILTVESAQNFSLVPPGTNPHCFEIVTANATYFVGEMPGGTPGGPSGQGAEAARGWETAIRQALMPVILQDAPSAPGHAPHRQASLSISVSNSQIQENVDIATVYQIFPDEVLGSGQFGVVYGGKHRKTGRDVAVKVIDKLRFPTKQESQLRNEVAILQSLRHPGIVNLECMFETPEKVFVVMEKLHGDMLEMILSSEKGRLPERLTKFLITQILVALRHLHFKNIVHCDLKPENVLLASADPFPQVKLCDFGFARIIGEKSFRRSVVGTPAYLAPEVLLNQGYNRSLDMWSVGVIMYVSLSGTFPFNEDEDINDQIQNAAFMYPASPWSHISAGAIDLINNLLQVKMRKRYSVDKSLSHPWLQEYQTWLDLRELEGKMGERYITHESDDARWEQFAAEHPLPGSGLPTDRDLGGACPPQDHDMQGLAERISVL
Classes by inhibition: 0 = under 2%, 1 = from 2% up to 10%, 2 = 10% and over

Challenge: Kindly identify the class of COc1cccc(Nc2nccc(-c3cnn4ncccc34)n2)c1 .
Response given: 2

Challenge: Which category does the recorded inhibition put NC(=O)c1ccc2c(-c3ccnc(NCCCO)n3)c(-c3ccc(F)cc3)nn2c1 in?
Response given: 2

Challenge: Given CCOc1ccc2c(-c3ccnc(Nc4cc(OC)cc(C(F)(F)F)c4)n3)cnn2n1 , name the class its inhibition places it in.
Response given: 0

Challenge: // return the class label for N#Cc1cccc(Nc2ncc(-c3ccccc3)o2)c1
Response given: 1

Challenge: Form: Item = Fc1cccc(COc2ccc(Nc3ncncc3C#Cc3ccccc3)cc2Cl)c1 ; Class = ?
Response given: 1

Challenge: Just checking, what class would you give CC(C)c1ccc(-c2cc(-c3c[nH]nc3-c3ccccn3)ccn2)cc1 here?
Response given: 2

Challenge: Given CN1CCC(n2cnc(-c3ccc(F)cc3)c2-c2ccnc(NCCO)n2)CC1 , name the class its inhibition places it in.
Response given: 2

Challenge: # bin lookup: classify NS(=O)(=O)c1ccc(N/N=C2\C(=O)Nc3cccc(CCc4ccncc4)c32)cc1 by its inhibition
Response given: 0

Challenge: Please classify: CC1(C)CC(n2cnc(-c3ccc(F)cc3)c2-c2ccnc(N)n2)CC(C)(C)N1
Response given: 1

Challenge: Category of COC(=O)Nc1nc2cc(Oc3ccc(NC(=O)Nc4ccccc4)cc3)ccc2[nH]1 :
Response given: 1

====

Target: 3-phosphoinositide-dependent protein kinase 1 (Homo sapiens);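 note: values are mean inhibition of PDK1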
Sequence (whole entry): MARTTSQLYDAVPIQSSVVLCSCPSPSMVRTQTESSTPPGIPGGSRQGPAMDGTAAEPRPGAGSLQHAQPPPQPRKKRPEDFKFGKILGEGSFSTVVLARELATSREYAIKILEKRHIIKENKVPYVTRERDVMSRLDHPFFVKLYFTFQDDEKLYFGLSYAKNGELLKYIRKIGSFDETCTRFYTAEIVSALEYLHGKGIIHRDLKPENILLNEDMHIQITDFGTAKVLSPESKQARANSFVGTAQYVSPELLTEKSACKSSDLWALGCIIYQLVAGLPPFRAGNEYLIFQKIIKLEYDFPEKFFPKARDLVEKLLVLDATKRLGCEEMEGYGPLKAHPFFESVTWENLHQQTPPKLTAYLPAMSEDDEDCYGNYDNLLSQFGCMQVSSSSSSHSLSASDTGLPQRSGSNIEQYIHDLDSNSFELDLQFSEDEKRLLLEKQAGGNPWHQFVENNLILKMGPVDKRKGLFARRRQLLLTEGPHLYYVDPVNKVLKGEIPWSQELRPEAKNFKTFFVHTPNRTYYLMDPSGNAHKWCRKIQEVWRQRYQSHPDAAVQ
Details: at 0.1 µM
Provide the reported inhibition of each item.
# unit: % | format: bare number

Documented inhibition of NS(=O)(=O)c1cccc(N/C=C2\C(=O)Nc3ccccc32)c1 : 4.6

O=C(O[C@H]1CN[C@H](C#Cc2cc3ncnc(Nc4ccc(OCc5cccc(F)c5)c(Cl)c4)c3s2)C1)N1CCOCC1 yielded inhibition of 0.08

Value of inhibition reported for the compound N#Cc1ccc2c(-c3ccnc(NC4CC4)n3)c(-c3ccc(F)cc3)nn2c1 is 0.01

According to the records, this compound COC(=O)Nc1nc2cc(Oc3ccc(NC(=O)Nc4ccccc4)cc3)ccc2[nH]1 displays inhibition of 1.31

Measured inhibition of O=C1Nc2ccccc2/C1=C1\CCc2cc(O)ccc21 : 15.1

// CS(=O)(=O)CCNCc1ccc(-c2ccc3ncnc(Nc4ccc(OCc5ccccc5)cc4)c3c2)o1 : inhibition value = 1.7

Documented inhibition of CNC(=O)c1sc(-n2cnc3cc(OC)c(OC)cc32)cc1OCc1ccccc1C(F)(F)F : 1.81

According to the records, this compound O=C(Nc1n[nH]c2nnc(-c3cccnc3)cc12)C1CC1 displays inhibition of -0.25

Record summary for CCN1CCC(C(=O)Nc2n[nH]c3nnc(-c4cccc(F)c4F)cc23)CC1 : reported inhibition = -0.53

inhibition reported for this compound CCOc1ccc2c(-c3ccnc(Nc4cc(OC)cc(C(F)(F)F)c4)n3)cnn2n1 : 1.07
